Reported values of Kd for individual entries
Biological target: T1, Human MCSP D3 (human, UniProt Q6UVK1 1582-2224)
T1 construct: Soluble analyte in SPR; The selection antigen was hu-MCSP(D3 domain)-avi-his; also called hu-MCSP(D3 domain)-avi-his
T1 sequence: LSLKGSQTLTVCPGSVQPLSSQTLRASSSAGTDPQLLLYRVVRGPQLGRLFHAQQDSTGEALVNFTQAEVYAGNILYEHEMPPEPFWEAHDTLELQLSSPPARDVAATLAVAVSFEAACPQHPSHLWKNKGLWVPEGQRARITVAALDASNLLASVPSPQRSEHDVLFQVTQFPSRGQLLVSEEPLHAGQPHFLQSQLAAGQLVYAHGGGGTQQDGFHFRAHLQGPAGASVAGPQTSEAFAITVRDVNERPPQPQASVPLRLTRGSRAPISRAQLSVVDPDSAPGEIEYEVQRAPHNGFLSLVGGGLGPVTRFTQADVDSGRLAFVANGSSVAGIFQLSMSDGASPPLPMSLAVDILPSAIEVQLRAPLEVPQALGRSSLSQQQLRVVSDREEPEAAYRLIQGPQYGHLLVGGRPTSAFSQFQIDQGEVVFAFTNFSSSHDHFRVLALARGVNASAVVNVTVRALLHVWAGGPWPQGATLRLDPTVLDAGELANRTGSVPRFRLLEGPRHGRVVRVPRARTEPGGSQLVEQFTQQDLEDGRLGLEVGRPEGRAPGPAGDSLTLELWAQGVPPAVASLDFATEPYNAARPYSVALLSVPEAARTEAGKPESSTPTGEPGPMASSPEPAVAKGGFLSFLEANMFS
Assay: SPR Biacore T200, 25 C, IgG captured on anti-human Fab, MCSP D3 as analyte, 1:1 Langmuir fit
Your answer is read as nM, so omit the unit and give the number.

Answered examples (4):
M4-3 (C1) ML2 (E10) (antibody, human IgG1, V domains shown) VH: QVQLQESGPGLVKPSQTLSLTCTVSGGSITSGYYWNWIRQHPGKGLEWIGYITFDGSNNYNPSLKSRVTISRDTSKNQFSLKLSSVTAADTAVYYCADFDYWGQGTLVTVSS VL: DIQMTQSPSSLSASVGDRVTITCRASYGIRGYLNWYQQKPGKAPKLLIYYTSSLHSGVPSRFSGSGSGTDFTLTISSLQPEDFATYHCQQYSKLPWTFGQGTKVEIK | 3.9
M4-3 (B7) ML2 (antibody, human IgG1, V domains shown) VH: QVQLQESGPGLVKPSQTLSLTCTVSGGSITSGYYWNWIRQHPGKGLEWIGYITFDGINNYNPSLKSRVTISRDTSKNQFSLKLSSVTAADTAVYYCADFDYWGQGTLVTVSS VL: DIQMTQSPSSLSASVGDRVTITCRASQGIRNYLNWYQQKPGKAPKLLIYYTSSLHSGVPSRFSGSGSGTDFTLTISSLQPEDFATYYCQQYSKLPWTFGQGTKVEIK | 12.6
M4-3 (D6) ML2 (antibody, human IgG1, V domains shown) VH: QVQLQESGPGLVKPSQTLSLTCTVSGGSITSGYYWNWIRQHPGKGLEWIGYITFDGKNNYNPSLKSRVTISRDTSKNQFSLKLSSVTAADTAVYYCADFDYWGQGTLVTVSS VL: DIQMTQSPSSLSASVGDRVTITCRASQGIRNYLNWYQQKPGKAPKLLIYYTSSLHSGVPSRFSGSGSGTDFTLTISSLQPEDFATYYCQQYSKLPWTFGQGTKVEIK | 15.1
M4-3 ML2 (C5/G3) (antibody, human IgG1, V domains shown) VH: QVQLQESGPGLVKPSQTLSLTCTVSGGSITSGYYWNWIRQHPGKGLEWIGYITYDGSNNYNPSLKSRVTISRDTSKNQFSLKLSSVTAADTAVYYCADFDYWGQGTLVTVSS VL: DIQMTQSPSSLSASVGDRVTITCRASRGIREYLNWYQQKPGKAPKLLIYYTGSLHSGVPSRFSGSGSGTDFTLTISSLQPEDFATYYCQQYSALPWTFGQGTKVEIK | 4.2

Q: Give the reported value of Kd for this record: M4-3 ML2 (E10/G3) (antibody, human IgG1, V domains shown) VH: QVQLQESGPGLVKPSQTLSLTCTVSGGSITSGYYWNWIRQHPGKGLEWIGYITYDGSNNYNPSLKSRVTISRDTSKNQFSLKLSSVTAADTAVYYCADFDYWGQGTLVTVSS VL: DIQMTQSPSSLSASVGDRVTITCRASYGIRGYLNWYQQKPGKAPKLLIYYTSSLHSGVPSRFSGSGSGTDFTLTISSLQPEDFATYHCQQYSALPWTFGQGTKVEIK
Ans: 5.5
